Target: BaF3 cell lines stably transfected with kinase EGFR Del/T790M/C797S (Homo sapiens, UniProt P00533, T790M/C797S, cells depend on it, form not given)
Sequence (P00533 with tags, fused parts or gaps DEL746-750/T790M/C797S, form open): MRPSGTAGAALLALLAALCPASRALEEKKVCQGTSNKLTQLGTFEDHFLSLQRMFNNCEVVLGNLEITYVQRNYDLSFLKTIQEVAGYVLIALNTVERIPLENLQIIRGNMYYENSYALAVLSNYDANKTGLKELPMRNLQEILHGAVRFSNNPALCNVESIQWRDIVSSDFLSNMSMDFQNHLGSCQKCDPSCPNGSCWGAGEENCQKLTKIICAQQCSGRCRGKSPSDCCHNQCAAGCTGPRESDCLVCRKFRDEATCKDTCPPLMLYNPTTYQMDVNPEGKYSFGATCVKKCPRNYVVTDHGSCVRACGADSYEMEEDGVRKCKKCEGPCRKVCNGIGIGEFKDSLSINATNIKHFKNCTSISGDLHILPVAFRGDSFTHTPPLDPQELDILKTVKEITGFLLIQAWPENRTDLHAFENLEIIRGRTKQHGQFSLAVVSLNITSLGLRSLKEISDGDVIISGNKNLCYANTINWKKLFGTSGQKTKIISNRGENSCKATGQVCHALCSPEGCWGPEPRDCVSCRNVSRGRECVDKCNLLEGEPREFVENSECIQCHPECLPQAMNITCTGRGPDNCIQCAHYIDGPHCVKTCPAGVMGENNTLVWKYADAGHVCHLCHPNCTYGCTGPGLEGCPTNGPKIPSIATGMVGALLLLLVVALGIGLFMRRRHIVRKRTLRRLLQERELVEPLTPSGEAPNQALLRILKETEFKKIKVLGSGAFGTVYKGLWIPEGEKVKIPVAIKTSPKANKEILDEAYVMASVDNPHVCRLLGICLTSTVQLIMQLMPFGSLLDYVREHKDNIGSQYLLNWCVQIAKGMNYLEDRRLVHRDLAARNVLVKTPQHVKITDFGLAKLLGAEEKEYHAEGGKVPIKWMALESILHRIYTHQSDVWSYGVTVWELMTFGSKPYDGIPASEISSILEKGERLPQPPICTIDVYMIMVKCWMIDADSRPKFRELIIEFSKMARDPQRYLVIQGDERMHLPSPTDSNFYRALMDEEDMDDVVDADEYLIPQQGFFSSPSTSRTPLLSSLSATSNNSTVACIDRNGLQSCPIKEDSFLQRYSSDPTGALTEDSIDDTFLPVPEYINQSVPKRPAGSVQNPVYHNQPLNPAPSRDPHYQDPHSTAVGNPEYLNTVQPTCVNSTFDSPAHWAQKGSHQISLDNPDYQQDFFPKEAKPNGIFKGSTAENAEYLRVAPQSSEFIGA
Assay: Growth inhibition of BaF3 cell line stably transfected with kinase EGFR Del/T790M/C797S (MTS)
Type: cell-based
Details: 48 h, read-out: growth inhibitory activity IC50, Del/T790M/C797S
measured endpoint: GI50

| compound string | reported |
| --- | --- |
| C=Cc1cnc(Nc2cc(CC)c(N3CCC(N4CCN(C)CC4)CC3)cc2OC(F)(F)F)nc1Nc1ccc2nccnc2c1NS(C)(=O)=O | 50 to 500 nM |
| C=Cc1cnc(Nc2cc(C(C)C)c(N3CCC(N4CCN(C)CC4)CC3)cc2OC)nc1Nc1ccc2nccnc2c1P(C)(C)=O | 50 to 500 nM |
| CCc1cc(Nc2ncc(/C=C/c3ccccc3)c(Nc3ccc4nccnc4c3N(C)S(C)(=O)=O)n2)c(OC)cc1N1CCC(N2CCN(C)CC2)CC1 | 500 to 2500 nM |

====

Target: BaF3 cell lines stably transfected with kinase EGFR Del/T790M (Homo sapiens, UniProt P00533, T790M, cells depend on it, form not given)
Sequence (P00533 with tags, fused parts or gaps DEL746-750/T790M, form open): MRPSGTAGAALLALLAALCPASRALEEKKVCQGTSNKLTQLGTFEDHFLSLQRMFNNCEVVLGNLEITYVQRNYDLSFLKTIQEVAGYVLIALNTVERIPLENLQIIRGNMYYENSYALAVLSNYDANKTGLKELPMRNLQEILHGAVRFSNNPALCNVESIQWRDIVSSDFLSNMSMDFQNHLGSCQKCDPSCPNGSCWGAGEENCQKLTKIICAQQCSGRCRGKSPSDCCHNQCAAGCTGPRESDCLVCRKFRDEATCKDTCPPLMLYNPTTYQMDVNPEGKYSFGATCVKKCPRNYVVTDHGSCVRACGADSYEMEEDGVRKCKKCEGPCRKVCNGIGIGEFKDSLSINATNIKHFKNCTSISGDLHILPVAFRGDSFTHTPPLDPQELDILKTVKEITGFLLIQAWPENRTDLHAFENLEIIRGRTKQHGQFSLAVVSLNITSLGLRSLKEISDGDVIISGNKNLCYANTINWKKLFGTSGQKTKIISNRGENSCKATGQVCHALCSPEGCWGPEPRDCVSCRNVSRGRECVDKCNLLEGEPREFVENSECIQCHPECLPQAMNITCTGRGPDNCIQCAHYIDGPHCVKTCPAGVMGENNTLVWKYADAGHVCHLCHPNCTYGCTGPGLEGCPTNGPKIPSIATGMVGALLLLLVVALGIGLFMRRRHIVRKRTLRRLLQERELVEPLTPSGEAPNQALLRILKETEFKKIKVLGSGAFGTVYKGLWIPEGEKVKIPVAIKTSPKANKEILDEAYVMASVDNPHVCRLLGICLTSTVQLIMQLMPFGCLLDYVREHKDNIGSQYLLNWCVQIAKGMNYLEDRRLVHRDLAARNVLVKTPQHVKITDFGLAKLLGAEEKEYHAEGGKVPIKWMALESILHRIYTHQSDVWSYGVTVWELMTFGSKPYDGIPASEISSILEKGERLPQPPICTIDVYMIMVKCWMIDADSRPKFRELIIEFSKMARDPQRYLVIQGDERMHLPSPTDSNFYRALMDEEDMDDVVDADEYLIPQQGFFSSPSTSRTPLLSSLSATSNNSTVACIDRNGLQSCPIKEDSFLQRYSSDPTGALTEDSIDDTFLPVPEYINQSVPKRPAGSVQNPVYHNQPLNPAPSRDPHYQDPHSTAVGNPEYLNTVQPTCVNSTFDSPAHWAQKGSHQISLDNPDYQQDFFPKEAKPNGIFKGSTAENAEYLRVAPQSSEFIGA
Assay: Growth inhibition of BaF3 cell line stably transfected with kinase EGFR Del/T790M (MTS)
Format: cell-based
Settings: 48 h, read-out: growth inhibitory activity IC50, Del/T790M
Measured GI50 values are reported for all entries that follow.
measured endpoint: GI50

| compound | reported |
| --- | --- |
| C=Cc1cnc(Nc2cc3c(cc2C)CCN(C)C3)nc1Nc1ccc2nccnc2c1N(C)S(C)(=O)=O [II-72] | 0.5 to 2.5 µM |
| C=Cc1cnc(Nc2cn(CC)nc2C)nc1Nc1ccc2nccnc2c1N(C)S(C)(=O)=O [II-68] | 0.5 to 2.5 µM |
| C=Cc1cnc(Nc2cc(CC)c(N3CCC(N(C)C)CC3)cc2OC)nc1Nc1ccc2nccnc2c1S(=O)(=O)NC [IV-13] | 0.05 to 0.5 µM |
| C=Cc1cnc(Nc2cc(CC)c(N3CCC(N(C)C)CC3)cc2OC)nc1Nc1ccc2nccnc2c1P(C)(C)=O [Compound I-2] | ≤ 0.05 µM |
| C=Cc1cnc(Nc2cc(C)c(N3CCC(N4CCN(C)CC4)CC3)cc2OC)nc1Nc1ccc2nccnc2c1P(C)(C)=O [Compound I-9] | ≤ 0.05 µM |
| C=Cc1cnc(Nc2ccc3c(c2)C(C)CN(C)CC3)nc1Nc1ccc2nccnc2c1N(C)S(C)(=O)=O (centres unmarked) [II-78] | 0.05 to 0.5 µM |
| C=Cc1cnc(Nc2cc(CC)c(N3CCC(C(C)C)C3)cc2OC)nc1Nc1ccc2nccnc2c1P(C)(C)=O (centres unmarked) [Compound I-3] | ≤ 0.05 µM |
| CCc1cc(Nc2ncc(C=C(C)C)c(Nc3ccc4nccnc4c3N(C)S(C)(=O)=O)n2)c(OC)cc1N1CCC(N2CCN(C)CC2)CC1 [II-26] | 0.5 to 2.5 µM |
| C=Cc1cnc(Nc2cc(C)c(N3CCC(N4CCN(C)CC4)CC3)cc2OC)nc1Nc1ccc2nccnc2c1NS(=O)(=O)C(C)C [II-43] | 0.05 to 0.5 µM |
| C=Cc1cnc(Nc2cc(CC)c(N3CCC(N4CCN(C)CC4)CC3)nc2OC)nc1Nc1ccc2nccnc2c1N(C)S(C)(=O)=O [II-5] | ≤ 0.05 µM |
| C=Cc1cnc(Nc2cc(CC)c(N3CCC(N4CCN(C)CC4)CC3)cc2OC(F)(F)F)nc1Nc1ccc2nccnc2c1N(C)S(C)(=O)=O [II-6] | ≤ 0.05 µM |
